All values here come from patent US20260256929A1.

- Tested on: MDA-MB-361
- PROTOCOL NOTES: Free drug cell killing activity (cell proliferation assay, Cell Titer-Glo)
- Format: cell-based
- RUN CONDITIONS: Homo sapiens, MDA-MB-361, 120 h
- Procedure: The in vitro cell killing activity of exatecan, gly-exatecan, and hemiasterlin were evaluated in a panel of breast cancer and lung cancer cell lines. MDA-MB-361, SKBR3, BT20, HCC38, HCC1143, HCC1937, JIMT1, MCF-7, A549, NCI-H441, NCI-H520, NCI-H1703, NCI-H1975, NCI-H2110, NCI-H226, NCI-H292, NCI-H358 cells were purchased from ATCC (American Type Culture Collection, Manassas, VA, USA). […] Cytotoxicity effect of the Exatecan warhead was measured with a cell proliferation assay. […]
pEC50: −log10 of the molar value.
TEST READOUT: pEC50

MOLECULE	TEST READOUT	RECORDED NUMBER
CC[C@@]1(O)C(=O)OCc2c1cc1n(c2=O)Cc2c-1nc1cc(F)c(C)c3c1c2[C@@H](N)CC3 [Exatecan, exatecan]	pEC50	8.92
